protocol-description: Plasma pharmacokinetics of pamiparib (LC-MS/MS, non-compartmental)
Parameters: species or system human
measurement-context: human, in vivo, 60 mg, Cmax, Steady State (Cycle 1 Day 17)
property-name: Cmax (ng/mL)
Your answer is read as ng/mL, so omit the unit and give the number.

Form field Cmax, entry C[C@]12CCCN1CC1=NNC(=O)c3cc(F)cc4[nH]c2c1c34 : 3830

###

protocol-description: Plasma pharmacokinetics of pamiparib (LC-MS/MS, non-compartmental)
Design: species or system human
measurement-context: human, in vivo, 2.5 mg, Cmax, Single Dose (Cycle 1 Day 1)
property-name: Cmax (µg/mL)
Only the number, expressed in µg/mL, is required.

Consider C[C@]12CCCN1CC1=NNC(=O)c3cc(F)cc4[nH]c2c1c34 . Its measured Cmax is 0.0745
